Tested on: Streptococcus pneumoniae
Experiment: Minimum inhibitory concentration against park strain of Streptococcus pneumoniae
Could you please report measured MIC for the items listed next?
Return type: number; implicit unit µg/mL.

Can you share its MIC? I mean this molecule: "O=C(COc1ccccc1)N[C@@H]1C(=O)N2C(C(=O)O)=C(Cl)CS[C@H]12"
0.06

Proceed to "C=CC1=C(C(=O)O)N2C(=O)[C@@H](NC(=O)COc3ccccc3)[C@H]2SC1"
0.25

Proceed to "CC1(C)S[C@@H]2[C@H](NC(=O)COc3ccccc3)C(=O)N2[C@H]1C(=O)O"
0.02

Proceed to "O=C(Cc1ccccc1)N[C@@H]1C(=O)N2C(C(=O)O)=C(Cl)CS[C@H]12"
0.25

====

System: Canis familiaris
Assay: Area under plasma concentration vs time curve observed in female mongrel dogs after, oral administration of single 15 mg/kg dose
Assay type: ADME, organism-based, Canis lupus familiaris
Design: dose 15 mg/kg, route oral
Details: dog, in vivo
assay-endpoint: AUC (ng·h/mL)
Return type: number; implicit unit ng·h/mL.

Can you share its AUC? I mean this compound: "Nc1nc(CC(=O)N[C@@H]2C(=O)N3C(C(=O)O)=C(Cl)CS[C@H]23)cs1"
9330

Proceed to "O=C(COc1ccccc1)N[C@@H]1C(=O)N2C(C(=O)O)=C(Cl)CS[C@H]12"
16700

Proceed to "CC1(C)S[C@@H]2[C@H](NC(=O)COc3ccccc3)C(=O)N2[C@H]1C(=O)O"
3000

Proceed to "O=C(Cc1cccs1)N[C@@H]1C(=O)N2C(C(=O)O)=C(Cl)CS[C@H]12"
15500

Proceed to "O=C(Cc1ccccc1)N[C@@H]1C(=O)N2C(C(=O)O)=C(Cl)CS[C@H]12"
16200

====

Experiment: dose in urine (24-h urine excretion) in female mongrel dogs after, iv administration of single 15 mg/kg dose
Assay type: ADME, organism-based, Canis lupus familiaris
Parameters: dose 15 mg/kg, route intravenous
Settings: dog
Could you please report measured dose excreted for the items listed next?
Return type: number; implicit unit %.

Can you share its dose excreted? I mean this compound: "O=C(Cc1csc2ccccc12)N[C@@H]1C(=O)N2C(C(=O)O)=C(Cl)CS[C@H]12"
20

Proceed to CC1(C)S[C@@H]2[C@H](NC(=O)COc3ccccc3)C(=O)N2[C@H]1C(=O)O [PENICILLIN V]
32

====

Experiment: Mean plasma levels in rats 40 min after iv administration of 100 mg/kg of probenecid 5 min prior to test compound
Format: ADME, organism-based
Design: dose 100 mg/kg, route intravenous
Details: rat, read-out: Plasma level
assay-endpoint: concentration at 40 min (ng/mL)
Return type: number; implicit unit ng/mL.

Can you share its concentration at 40 min? I mean this compound: "CC1(C)S[C@@H]2[C@H](NC(=O)COc3ccccc3)C(=O)N2[C@H]1C(=O)O"
14100

====

Tested on: Salmonella
Experiment: Minimum inhibitory concentration against X514 strain of Salmonella
Type: functional
assay-endpoint: MIC (µg/mL)
Return type: number; implicit unit µg/mL.

Can you share its MIC? I mean this compound: N[C@@H](C(=O)N[C@@H]1C(=O)N2C(C(=O)O)=C(Cl)CS[C@H]12)c1ccccc1 [CEFACLOR ANHYDROUS]
0.5

Proceed to "Nc1nc(CC(=O)N[C@@H]2C(=O)N3C(C(=O)O)=C(Cl)CS[C@H]23)cs1"
0.25

Proceed to "O=C(COc1ccc(O)cc1)N[C@@H]1C(=O)N2C(C(=O)O)=C(Cl)CS[C@H]12"
64

====

Could you please report measured concentration at 2 h for the items listed next?
Assay: Mean plasma levels in rats 2 hr after iv administration of 100 mg/kg of probenecid 5 min prior to test compound
Format: ADME, organism-based
Parameters: dose 100 mg/kg, route intravenous
Settings: rat, read-out: Plasma levels
Return type: number; implicit unit ng/mL.

Can you share its concentration at 2 h? I mean this compound: "O=C(COc1ccccc1)N[C@@H]1C(=O)N2C(C(=O)O)=C(Cl)CS[C@H]12"
4600

Proceed to "Nc1nc(CC(=O)N[C@@H]2C(=O)N3C(C(=O)O)=C(Cl)CS[C@H]23)cs1"
1800

====

System: Salmonella
Assay: Minimum inhibitory concentration against X514 strain of Salmonella
Assay type: functional
Could you please report measured MIC for the items listed next?

Can you share its MIC? I mean this compound: "O=C(Cc1ccc(O)cc1)N[C@@H]1C(=O)N2C(C(=O)O)=C(Cl)CS[C@H]12"
8 µg/mL

Proceed to "O=C(Cc1csc2ccccc12)N[C@@H]1C(=O)N2C(C(=O)O)=C(Cl)CS[C@H]12"
128 µg/mL

Proceed to "O=C(Cc1ccsc1)N[C@@H]1C(=O)N2C(C(=O)O)=C(Cl)CS[C@H]12"
1 µg/mL

Proceed to CC1(C)S[C@@H]2[C@H](NC(=O)COc3ccccc3)C(=O)N2[C@H]1C(=O)O [PENICILLIN V]
> 128 µg/mL

Proceed to "O=C(Cc1csc(Cl)n1)N[C@@H]1C(=O)N2C(C(=O)O)=C(Cl)CS[C@H]12"
8 µg/mL

====

Test system: Streptococcus pneumoniae
Assay: Minimum inhibitory concentration against park strain of Streptococcus pneumoniae
1 if MIC is below 0.5 µg/mL. 0 if not; exact matches included in 0.

Record "O=C(COc1ccccc1)N[C@@H]1C(=O)N2C(C(=O)O)=CCS[C@H]12" : is its MIC strictly below 0.5 µg/mL?
1

Proceed to "O=C(Cc1cccs1)N[C@@H]1C(=O)N2C(C(=O)O)=C(Cl)CS[C@H]12"
1

Proceed to CC1=C(C(=O)O)N2C(=O)[C@@H](NC(=O)[C@H](N)c3ccccc3)[C@H]2SC1 [CEPHALEXIN ANHYDROUS]
0

Proceed to "O=C(Cc1ccccc1)N[C@@H]1C(=O)N2C(C(=O)O)=CCS[C@H]12"
0

Proceed to "O=C(Cc1csc2ccc(Cl)cc12)N[C@@H]1C(=O)N2C(C(=O)O)=C(Cl)CS[C@H]12"
1

Proceed to "O=C(Cc1csc2ccccc12)N[C@@H]1C(=O)N2C(C(=O)O)=C(Cl)CS[C@H]12"
1

Proceed to N[C@@H](C(=O)N[C@@H]1C(=O)N2C(C(=O)O)=C(Cl)CS[C@H]12)c1ccccc1 [CEFACLOR ANHYDROUS]
0

====

Could you please report measured bioavailability for the items listed next?
Test: Bioavailability in rat
Format: ADME, organism-based
Conditions: in vivo
Return type: number; implicit unit %.

Can you share its bioavailability? I mean this compound: "Nc1nc(CC(=O)N[C@@H]2C(=O)N3C(C(=O)O)=C(Cl)CS[C@H]23)cs1"
19.2

Proceed to "O=C(COc1ccccc1)N[C@@H]1C(=O)N2C(C(=O)O)=C(Cl)CS[C@H]12"
23.1

Proceed to "CC1(C)S[C@@H]2[C@H](NC(=O)COc3ccccc3)C(=O)N2[C@H]1C(=O)O"
11.6

====

Could you please report measured MIC for the items listed next?
Tested on: Streptococcus pyogenes
Assay: Minimum inhibitory concentration against C203 strain of Streptococcus pyogenes
Return type: number; implicit unit µg/mL.

Give MIC (Streptococcus pyogenes) of the following compound: "O=C(Cc1ccccc1)N[C@@H]1C(=O)N2C(C(=O)O)=C(Cl)CS[C@H]12"
0.125

Proceed to "Nc1nc(CC(=O)N[C@@H]2C(=O)N3C(C(=O)O)=C(Cl)CS[C@H]23)cs1"
0.25

Proceed to "O=C(Cc1cccs1)N[C@@H]1C(=O)N2C(C(=O)O)=C(Cl)CS[C@H]12"
0.125

Proceed to "O=C(Cc1csc2ccc(Cl)cc12)N[C@@H]1C(=O)N2C(C(=O)O)=C(Cl)CS[C@H]12"
0.03

Proceed to "C=CC1=C(C(=O)O)N2C(=O)[C@@H](NC(=O)COc3ccccc3)[C@H]2SC1"
0.125

Proceed to "O=C(COc1ccccc1)N[C@@H]1C(=O)N2C(C(=O)O)=CCS[C@H]12"
0.25

Proceed to "O=C(Cc1ccccc1)N[C@@H]1C(=O)N2C(C(=O)O)=CCS[C@H]12"
0.25

====

Could you please report measured bioavailability for the items listed next?
Experiment: Oral bioavailability in mouse
Type: ADME, organism-based
Settings: in vivo
Return type: number; implicit unit %.

Can you share its bioavailability? I mean this compound: N[C@@H](C(=O)N[C@@H]1C(=O)N2C(C(=O)O)=C(Cl)CS[C@H]12)c1ccccc1 [CEFACLOR ANHYDROUS]
76

Proceed to "O=C(Cc1ccsc1)N[C@@H]1C(=O)N2C(C(=O)O)=C(Cl)CS[C@H]12"
47

Proceed to "Cc1nc(CC(=O)N[C@@H]2C(=O)N3C(C(=O)O)=C(Cl)CS[C@H]23)cs1"
66

Proceed to "O=C(Cc1ccc(O)cc1)N[C@@H]1C(=O)N2C(C(=O)O)=C(Cl)CS[C@H]12"
14

Proceed to "CC1(C)S[C@@H]2[C@H](NC(=O)COc3ccccc3)C(=O)N2[C@H]1C(=O)O"
29

Proceed to "Nc1nc(CC(=O)N[C@@H]2C(=O)N3C(C(=O)O)=C(Cl)CS[C@H]23)cs1"
64

Proceed to "O=C(Cc1csc2ccccc12)N[C@@H]1C(=O)N2C(C(=O)O)=C(Cl)CS[C@H]12"
47

Proceed to "COC1=C(C(=O)O)N2C(=O)[C@@H](NC(=O)COc3ccccc3)[C@H]2SC1"
14

Proceed to "O=C(Cc1ccccc1)N[C@@H]1C(=O)N2C(C(=O)O)=C(Cl)CS[C@H]12"
37

Proceed to "O=C(Cc1ccccc1)N[C@@H]1C(=O)N2C(C(=O)O)=CCS[C@H]12"
12

Proceed to "COCC1=C(C(=O)O)N2C(=O)[C@@H](NC(=O)COc3ccccc3)[C@H]2SC1"
19

Proceed to "O=C(Cc1csc(Cl)n1)N[C@@H]1C(=O)N2C(C(=O)O)=C(Cl)CS[C@H]12"
56

Proceed to "O=C(COc1ccc(O)cc1)N[C@@H]1C(=O)N2C(C(=O)O)=C(Cl)CS[C@H]12"
21

Proceed to "C=CC1=C(C(=O)O)N2C(=O)[C@@H](NC(=O)Cc3csc(N)n3)[C@H]2SC1"
25

Proceed to "O=C(Cc1cccs1)N[C@@H]1C(=O)N2C(C(=O)O)=C(Cl)CS[C@H]12"
44

Proceed to "C=CC1=C(C(=O)O)N2C(=O)[C@@H](NC(=O)COc3ccccc3)[C@H]2SC1"
36

Proceed to "CC1=C(C(=O)O)N2C(=O)[C@@H](NC(=O)COc3ccccc3)[C@H]2SC1"
37

Proceed to "O=C(COc1ccccc1)N[C@@H]1C(=O)N2C(C(=O)O)=CCS[C@H]12"
22
